Biological target: wild-type hGDH2 (Homo sapiens)
Construct: made in house; host or cells: Sf21 insect cells, baculovirus
Test: Inhibition of purified recombinant GDH by female steroidal hormones
Type: biochemical
Details: 0.1 mM ADP
PARAMETER: IC50

C[C@]12CC[C@@H]3c4ccc(O)cc4CC[C@H]3[C@@H]1C[C@@H](O)[C@@H]2O [Oestriol]; 189 µM

query: Endpoint output: IC50 of CC(=O)[C@H]1CC[C@H]2[C@@H]3CCC4=CC(=O)CC[C@]4(C)[C@H]3CC[C@]12C [Progesterone] . Value?
result: 392 µM

query: Give its IC50 value. Item: CC/C(=C(/CC)c1ccc(O)cc1)c1ccc(O)cc1 [DES, diethylstilbestrol]
result: 1.05 µM

###

Target: wild-type hGDH2 (Homo sapiens, UniProt P49448)
Construct: made in house; host or cells: Sf21 insect cells, baculovirus
Sequence (P49448 54-558): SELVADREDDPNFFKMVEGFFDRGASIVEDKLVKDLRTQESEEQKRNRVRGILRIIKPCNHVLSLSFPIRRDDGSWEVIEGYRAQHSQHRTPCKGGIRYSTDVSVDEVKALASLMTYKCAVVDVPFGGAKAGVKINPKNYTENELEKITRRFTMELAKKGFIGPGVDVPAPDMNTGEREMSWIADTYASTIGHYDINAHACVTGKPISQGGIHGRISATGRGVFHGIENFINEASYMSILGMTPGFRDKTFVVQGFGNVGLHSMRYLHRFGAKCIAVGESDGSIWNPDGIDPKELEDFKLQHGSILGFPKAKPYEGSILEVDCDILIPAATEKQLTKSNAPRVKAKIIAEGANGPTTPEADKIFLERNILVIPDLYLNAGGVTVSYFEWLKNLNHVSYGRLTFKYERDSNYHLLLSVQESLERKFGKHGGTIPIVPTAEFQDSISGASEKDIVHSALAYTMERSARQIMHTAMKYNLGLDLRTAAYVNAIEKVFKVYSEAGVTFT
Experiment: Inhibition of purified recombinant GDH by female steroidal hormones
Type: biochemical
Details: No ADP (baseline conditions)
Recorded measurements of pIC50, one per entry
Value format note: pIC50 is -log10 of concentration (mol/L); just state the number.

CC(=O)[C@H]1CC[C@H]2[C@@H]3CCC4=CC(=O)CC[C@]4(C)[C@H]3CC[C@]12C [Progesterone]; 4.91

Consider the record given below.
query: Which pIC50 value is on record for C[C@]12CC[C@@H]3c4ccc(O)cc4CC[C@H]3[C@@H]1C[C@@H](O)[C@@H]2O [Oestriol] ?
result: 4.95

###

Biological target: hGDH1 (Homo sapiens, UniProt P00367)
Experiment: GTP inhibition of purified recombinant GDH activity
Assay type: biochemical
Parameters: made in house; host or cells: Sf21 insect cells, baculovirus
Details: 0.1 mM ADP
PARAMETER: IC50 (nM)
Please state the figure in nM; there is no need to write the unit.

query: Quick check: IC50 of Nc1nc2c(ncn2[C@@H]2O[C@H](COP(=O)(O)OP(=O)(O)OP(=O)(O)O)[C@@H](O)[C@H]2O)c(=O)[nH]1 ?
result: 1610

###

Biological target: Ser443-hGDH1 (Arg443Ser hGDH1 mutant) (Homo sapiens, UniProt P00367, R496S)
Construct: made in house; host or cells: Sf21 insect cells
Sequence (P00367 54-558 R496S): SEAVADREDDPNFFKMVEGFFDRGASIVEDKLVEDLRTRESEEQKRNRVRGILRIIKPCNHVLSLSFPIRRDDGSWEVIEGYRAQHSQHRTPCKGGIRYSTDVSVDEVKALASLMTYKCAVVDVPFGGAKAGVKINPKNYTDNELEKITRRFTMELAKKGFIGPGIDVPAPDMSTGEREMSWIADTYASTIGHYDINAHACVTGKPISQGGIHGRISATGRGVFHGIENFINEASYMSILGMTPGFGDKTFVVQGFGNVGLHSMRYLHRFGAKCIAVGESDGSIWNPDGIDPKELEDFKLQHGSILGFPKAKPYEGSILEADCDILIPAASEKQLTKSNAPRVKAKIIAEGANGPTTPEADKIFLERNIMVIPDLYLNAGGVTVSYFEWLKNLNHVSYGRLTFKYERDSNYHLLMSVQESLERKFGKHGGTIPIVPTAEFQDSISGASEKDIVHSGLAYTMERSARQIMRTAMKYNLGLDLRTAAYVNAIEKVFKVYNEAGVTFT
Assay: Inhibition of purified recombinant GDH by female steroidal hormones
Assay type: biochemical
PARAMETER: IC50

query: Please give the measured IC50 for this compound: C[C@]12CC[C@@H]3c4ccc(O)cc4CC[C@H]3[C@@H]1CC[C@@H]2O [17 b-Estradiol, 17 beta-estradiol]
result: 2.22 µM

###

Molecular target: Ala445-hGDH2 (Homo sapiens, UniProt P49448, S498A)
Sequence (P49448 54-558 S498A): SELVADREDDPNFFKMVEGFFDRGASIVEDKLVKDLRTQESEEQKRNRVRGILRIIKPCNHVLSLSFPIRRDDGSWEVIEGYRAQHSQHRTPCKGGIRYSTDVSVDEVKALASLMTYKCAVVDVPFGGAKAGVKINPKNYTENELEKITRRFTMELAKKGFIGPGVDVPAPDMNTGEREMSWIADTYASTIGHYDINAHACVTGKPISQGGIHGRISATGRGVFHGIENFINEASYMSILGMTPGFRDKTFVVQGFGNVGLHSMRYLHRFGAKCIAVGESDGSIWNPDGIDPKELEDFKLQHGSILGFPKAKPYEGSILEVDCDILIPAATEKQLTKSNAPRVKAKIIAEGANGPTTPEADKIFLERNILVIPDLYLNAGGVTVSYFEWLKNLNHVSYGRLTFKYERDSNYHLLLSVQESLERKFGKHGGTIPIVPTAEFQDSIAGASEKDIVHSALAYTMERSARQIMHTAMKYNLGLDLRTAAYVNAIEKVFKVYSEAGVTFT
Assay: GTP inhibition of purified recombinant GDH activity
Format: biochemical
Parameters: made in house; host or cells: Sf21 insect cells, baculovirus
Details: No ADP
PARAMETER: IC50 (µM)
Numbers only here, please. The scale is µM.

query: Recorded IC50 for Nc1nc2c(ncn2[C@@H]2O[C@H](COP(=O)(O)OP(=O)(O)OP(=O)(O)O)[C@@H](O)[C@H]2O)c(=O)[nH]1 [GTP] , please?
result: 29.1

###

Target: Ser445Ala hGDH2 variant (Homo sapiens, UniProt P49448, S498A)
Assay: Inhibition of purified recombinant GDH by estrogens
Settings: baseline conditions (absence of allosteric effectors)
PARAMETER: IC50 (nM)
// note: answer is a bare numeric in nM

query: Reported IC50 for CC/C(=C(/CC)c1ccc(O)cc1)c1ccc(O)cc1 : what is it?
result: 19
